Provide the reported pIC50 of each item.
measuredTarget: Steroid 17-alpha-hydroxylase/17,20 lyase (Homo sapiens, UniProt P05093)
Sequence (P05093 whole entry): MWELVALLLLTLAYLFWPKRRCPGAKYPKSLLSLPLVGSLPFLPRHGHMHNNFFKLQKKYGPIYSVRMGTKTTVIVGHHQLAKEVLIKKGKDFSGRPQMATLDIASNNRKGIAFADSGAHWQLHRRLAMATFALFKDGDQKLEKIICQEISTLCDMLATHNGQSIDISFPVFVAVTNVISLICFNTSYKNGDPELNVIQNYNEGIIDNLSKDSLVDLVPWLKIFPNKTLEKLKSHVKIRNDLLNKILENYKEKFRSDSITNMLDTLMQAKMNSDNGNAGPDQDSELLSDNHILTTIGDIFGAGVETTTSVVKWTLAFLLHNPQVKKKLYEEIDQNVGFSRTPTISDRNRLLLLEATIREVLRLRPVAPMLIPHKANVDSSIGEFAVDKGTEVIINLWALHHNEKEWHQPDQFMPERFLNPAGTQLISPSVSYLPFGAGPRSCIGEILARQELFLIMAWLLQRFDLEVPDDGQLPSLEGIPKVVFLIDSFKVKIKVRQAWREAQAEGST
assayOverview: Inhibition of CYP17 in human H295R cells assessed as decrease in testosterone levels after 24 hrs by ELISA
Assay type: cell-based
pIC50: −log10 of the molar value.

Lookup: # get_value(readout='pIC50', item= `CC(=O)N[C@@H]1CC[C@@]2(C)C(=CC[C@H]3C4=CC=C(c5cccnc5)[C@@]4(C)CC[C@@H]32)C1` )
Found: ≥ 7.82

Lookup: Then `C[C@]12CC[C@H]3[C@@H](CCC4=CC(=O)NCC[C@@]43C)C1=CC=C2c1cncc(F)c1` ?
Found: ≥ 7.82

Lookup: How about `C[C@]12CCC(=O)C=C1C=C[C@@H]1[C@@H]2CC[C@]2(C)C(c3cncc(F)c3)=CC[C@@H]12` ?
Found: ≥ 7.82

Lookup: Param item: C[C@]12CC[C@H]3[C@@H](CC(F)C4(O)C[C@@H](O)CC[C@]34C)[C@@H]1CC=C2c1cncc(F)c1 (some centres not stated)
Found: ≥ 7.82

Lookup: Same thing, different compound: CC1C[C@H]2C3=CC=C(c4cncc(F)c4)[C@@]3(C)CC[C@@H]2[C@@]2(C)CCC(=O)C=C12 (some centres not stated)
Found: ≥ 7.82

Lookup: Also check `C=C1C[C@@H]2[C@H](CC[C@]3(C)C(c4cccnc4)=CC[C@@H]23)[C@@]2(C)CCC(=O)C=C12`
Found: ≥ 7.82

Lookup: Same again, this time with `C=C1C[C@@H]2[C@H](CC[C@]3(C)C(c4cncc(F)c4)=CC[C@@H]23)[C@@]2(C)C=CC(=O)C=C12`
Found: ≥ 7.82

###

measuredTarget: CYP21 (steroid 21-hydroxylase) (Homo sapiens, UniProt P08686)
Sequence (P08686 whole entry): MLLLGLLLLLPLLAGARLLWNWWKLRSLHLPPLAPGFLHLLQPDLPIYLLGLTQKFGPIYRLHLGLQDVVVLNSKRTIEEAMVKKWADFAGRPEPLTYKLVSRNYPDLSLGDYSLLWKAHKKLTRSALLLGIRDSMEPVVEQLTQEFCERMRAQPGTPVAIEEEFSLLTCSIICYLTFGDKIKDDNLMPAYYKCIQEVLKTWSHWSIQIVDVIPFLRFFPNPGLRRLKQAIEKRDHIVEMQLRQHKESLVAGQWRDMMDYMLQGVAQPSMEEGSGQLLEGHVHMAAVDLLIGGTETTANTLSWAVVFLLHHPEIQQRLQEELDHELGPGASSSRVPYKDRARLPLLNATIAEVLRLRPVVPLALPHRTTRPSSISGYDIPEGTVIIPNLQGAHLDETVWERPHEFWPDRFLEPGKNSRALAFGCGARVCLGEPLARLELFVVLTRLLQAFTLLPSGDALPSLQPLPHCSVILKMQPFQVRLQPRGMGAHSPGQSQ
assayOverview: Inhibition of human CYP21 transfected in HEK293 cells assessed as decrease in conversion of progesterone to 11-deoxycorticosterone preincubated for 5 hrs followed by progesterone addition measured after 20 hrs by ELISA
Type: cell-based
Parameters: concentration or dose not given beside the values
conditionsUsed: HEK293 cells transfected with human CYP21, probe progesterone
property: inhibition at 20 h

Lookup: Given C[C@]1(O)CC[C@@]2(C)C(CC[C@H]3C4=CC=C(c5cccnc5)[C@@]4(C)CC[C@@H]32)C1 (some centres not stated) , state its recorded inhibition at 20 h.
Found: 10 to 50%

Lookup: Query `C[C@]12CC[C@H]3[C@@H](CC=C4C[C@@H](OC(=O)c5ccccc5)CC[C@@]43C)C1=CC=C2c1cccnc1` next
Found: 10 to 50%

Lookup: Repeat with `C[C@]12CC[C@H]3[C@@H](CC=C4C[C@@H](OC(=O)Nc5cccnc5)CC[C@@]43C)C1=CC=C2c1cccnc1`
Found: 10 to 50%

Lookup: // next record CC1C[C@H]2C3=CC=C(c4cncc(C(F)F)c4)[C@@]3(C)CC[C@@H]2[C@@]2(C)CCC(=O)C=C12 (some centres not stated)
Found: < 10%

Lookup: Same question, `Cc1cnc(F)c(C2=CC[C@H]3[C@@H]4CCC5=CC(=O)CC[C@]5(C)[C@H]4CC[C@]23C)c1` this time
Found: 10 to 50%

Lookup: Entry to check: C[C@]12CCC(=O)C=C1C(F)C[C@@H]1[C@@H]2CC[C@]2(C)C(c3cncc(F)c3)=CC[C@@H]12 (some centres not stated)
Found: ≥ 50%

Lookup: Try this compound next: `CN1CCC(C(=O)O[C@H]2CC[C@@]3(C)C(=CC[C@H]4C5=CC=C(c6cccnc6)[C@@]5(C)CC[C@@H]43)C2)CC1`
Found: 10 to 50%

###

measuredTarget: Steroid 17-alpha-hydroxylase/17,20 lyase (Homo sapiens, UniProt P05093)
assayOverview: Inhibition of CYP17 in human testicular microsomes using 17alpha-hydroxypregnenolone as substrate assessed as decrease in DHEA levels at 10 nM after 90 mins by ELISA relative to control
Set-up: species or system Testis
conditionsUsed: 1.5 h
Give measured inhibition at 0.01 µM for each item. Keep answers brief.

Lookup: For the record `Cc1cncc(C2=CC[C@H]3[C@@H]4CC[C@H]5COCCC[C@]5(C)[C@H]4CC[C@]23C)c1` , what value of inhibition at 0.01 µM is listed for Steroid 17-alpha-hydroxylase/17,20 lyase (Homo sapiens, UniProt P05093)?
Found: 50 to 80%

Lookup: Also `CC(=O)O[C@H]1CC[C@@]2(C)[C@@H](CC[C@H]3C4=CC=C(c5cccnc5)[C@@]4(C)CC[C@@H]32)C1` , if possible.
Found: ≥ 80%

Lookup: What do you get for `C[C@]12CC[C@H]3[C@@H](CC[C@H]4C[C@@H](O)CC[C@@]43C)C1=CC=C2c1cccnc1` ?
Found: ≥ 80%

Lookup: Lookup `C[C@]12CCNC(=O)C=C1CC[C@@H]1[C@@H]2CC[C@]2(C)C(n3ccnn3)=CC[C@@H]12`
Found: ≥ 80%

###

For each record, write down the corresponding inhibition at 0.01 µM.
measuredTarget: Steroid 17-alpha-hydroxylase/17,20 lyase (Homo sapiens)
assayOverview: Inhibition of CYP17 in human testicular microsomes using 17alpha-hydroxypregnenolone as substrate assessed as decrease in DHEA levels at 10 nM after 90 mins by ELISA relative to control
Set-up: species or system Testis
conditionsUsed: 1.5 h

Lookup: State its inhibition at 0.01 µM on Steroid 17-alpha-hydroxylase/17,20 lyase (Homo sapiens): COc1cncc(C2CC[C@H]3[C@@H]4CCC5=CC(=O)NCC[C@]5(C)[C@H]4CC[C@]23C)c1 (stereo not given in full)
Found: ≥ 80%

Lookup: Try this compound too: `CCc1cncc(C2=CC[C@H]3[C@@H]4CC[C@H]5CCCCC[C@]5(C)[C@H]4CC[C@]23C)c1`
Found: 1 to 50%

Lookup: Record: `Cc1cncc(C2=CC[C@H]3[C@@H]4CC[C@H]5CCOCC[C@]5(C)[C@H]4CC[C@]23C)c1`
Found: 50 to 80%

Lookup: Param item: `COc1cncc(C2=CC[C@H]3[C@@H]4CCC5=CC(=O)NCC[C@]5(C)[C@H]4CC[C@]23C)c1`
Found: 50 to 80%

Lookup: What about this compound? COC1CC[C@@]2(C)[C@@H](CC[C@@H]3[C@@H]2CC[C@]2(C)C(c4cccnc4)=CC[C@@H]32)C1 (stereo not given in full)
Found: 1 to 50%

Lookup: Query C[C@]12CCNC(=O)C=C1CC[C@@H]1[C@@H]2CC[C@]2(C)C(n3ccnc3)CC[C@@H]12 (stereo not given in full) next
Found: ≥ 80%

Lookup: Proceed to `CCc1cncc(C2=CC[C@H]3[C@@H]4CCC5=CCN(C)CC[C@]5(C)[C@H]4CC[C@]23C)c1`
Found: 1 to 50%

Lookup: Let us now turn to `CN1CC[C@@]2(C)C(=CC1=O)CC[C@@H]1[C@@H]2CC[C@]2(C)C(n3ccnc3)=CC[C@@H]12`
Found: ≥ 80%

Lookup: For CN1CC[C@@]2(C)C(=CC1=O)CCC1[C@@H]2CC[C@]2(C)C(c3cccnc3)=CC[C@@H]12 (single isomer, unassigned) then?
Found: 50 to 80%

Lookup: Follow-up item: `C[C@]12CC[C@H]3[C@@H](CCN4C(=O)CCCC[C@]34C)[C@@H]1CC=C2c1cccnc1`
Found: 50 to 80%

Lookup: And what about the compound `COc1cncc(C2=CC=C3[C@@H]4CCC5=CC(=O)N(C)CC[C@]5(C)[C@H]4CC[C@]23C)c1` ?
Found: ≥ 80%

Lookup: Let us now turn to `C[C@]12CC[C@H]3[C@@H](CC[C@H]4CNC(=O)CC[C@@]43C)C1=CC=C2c1cccnc1`
Found: 50 to 80%

Lookup: Also `C[C@]12CC[C@H](O)C[C@@H]1CC[C@@H]1[C@@H]2CC[C@]2(C)C(n3ccnn3)=CC[C@@H]12` ?
Found: ≥ 80%

Lookup: What about `CN1CC[C@@]2(C)C(=CC1=O)CC[C@H]1C3=CC=C(n4ccnc4)[C@@]3(C)CC[C@@H]12` ?
Found: ≥ 80%

Lookup: Then what about the compound `C[C@]12CCNC(=O)C=C1CC[C@@H]1[C@@H]2CC[C@]2(C)C(n3cncn3)=CC[C@@H]12` ?
Found: ≥ 80%

###

measuredTarget: CYP21 (steroid 21-hydroxylase) (Homo sapiens)
assayOverview: Inhibition of human CYP21 transfected in HEK293 cells assessed as decrease in conversion of progesterone to 11-deoxycorticosterone preincubated for 5 hrs followed by progesterone addition measured after 20 hrs by ELISA
Format: cell-based
Parameters: concentration or dose not given beside the values
conditionsUsed: HEK293 cells transfected with human CYP21, probe progesterone
property: inhibition at 20 h

Lookup: Lab request: please report inhibition at 20 h under test system CYP21 (steroid 21-hydroxylase) (Homo sapiens) for C[C@]12CC(O)CC1CC[C@@H]1[C@@H]2CC[C@]2(C)C(c3cncc(F)c3)=CC[C@@H]12 (stereo partly drawn)
Found: 10 to 50%

Lookup: Now give it for C[C@]12CC[C@H]3[C@@H](CC(C4CC4)C4=CC(=O)CC[C@@]43C)C1=CC=C2c1cccnc1 (stereo partly drawn) too.
Found: 10 to 50%

Lookup: // next record `C[C@]12CC[C@H](O)CC1=CC[C@@H]1[C@@H]2CC[C@]2(C)C(c3cccnc3)=CC[C@@H]12`
Found: ≥ 50%

Lookup: What about C[C@@]1(O)CC[C@@]2(C)C(CCC3C4=CC=C(c5cccnc5)[C@@]4(C)CC[C@@H]32)C1 (single isomer, unassigned) ?
Found: < 10%

Lookup: Try this molecule next: Cc1ccncc1C1=CCC2[C@@H]3CN(C)C4=CC(=O)CC[C@]4(C)[C@H]3CC[C@]12C (single isomer, unassigned)
Found: 10 to 50%

Lookup: Repeat for the following molecule: `Cc1ccncc1C(=O)O[C@H]1CC[C@@]2(C)C(=CC[C@H]3C4=CC=C(c5cccnc5)[C@@]4(C)CC[C@@H]32)C1`
Found: 10 to 50%

Lookup: // next record `CC1=C2CC[C@@H]3[C@H](CC[C@]4(C)C(c5cccnc5)=CC[C@@H]34)[C@@]2(C)CC/C1=N\O`
Found: 10 to 50%

Lookup: Can you check C[C@@H]1C2CC[C@@H]3[C@H](CC[C@]4(C)C(c5cncc(C(F)F)c5)=CC[C@@H]34)[C@@]2(C)CC[C@H]1O (stereo partly drawn) next?
Found: < 10%

Lookup: Then `C[C@]12CC[C@@H](NC(=O)c3nccs3)CC1=CC[C@@H]1[C@@H]2CC[C@]2(C)C(c3cccnc3)=CC[C@@H]12` ?
Found: 10 to 50%

Lookup: Again, but for `CC(C)(C)C(=O)O[C@H]1CC[C@@]2(C)C(=CC[C@H]3C4=CC=C(c5cccnc5)[C@@]4(C)CC[C@@H]32)C1`
Found: 10 to 50%

Lookup: Try `C[C@]12CCC(=O)C=C1C(=O)C[C@@H]1[C@@H]2CC[C@]2(C)C(c3cncc(F)c3)=CC[C@@H]12` next.
Found: ≥ 50%

Lookup: Now this one: C[C@]12CCC(=O)CC1C(=O)C[C@@H]1[C@@H]2CC[C@]2(C)C(c3cncc(F)c3)=CC[C@@H]12 (stereo partly drawn)
Found: ≥ 50%

Lookup: What do you have for `COC(=O)N[C@@H]1CC[C@@]2(C)C(=CC[C@@H]3[C@@H]2CC[C@]2(C)C(n4ccnc4)=CC[C@@H]32)C1` ?
Found: ≥ 50%

Lookup: Next entry: CC(=O)O[C@H]1CC[C@@]2(C)C(CC[C@H]3C4=CC=C(c5cnccc5C)[C@@]4(C)CC[C@@H]32)C1 (stereo partly drawn)
Found: 10 to 50%

Lookup: And then `Cc1ccncc1C1=CC=C2[C@@H]3CC=C4C[C@@H](O)CC[C@]4(C)[C@H]3CC[C@]12C` , what is it?
Found: ≥ 50%

Lookup: Same thing, different molecule: COc1cncc(C2=CC[C@H]3[C@@H]4CCC5C[C@@H](NC(C)=O)CC[C@]5(C)[C@H]4CC[C@]23C)c1 (stereo partly drawn)
Found: ≥ 50%

Lookup: Now the same for C[C@]12CC[C@H]3[C@@H](CCC45CC4C(O)CC[C@]35C)[C@@H]1CC=C2c1cncc(F)c1 (stereo partly drawn)
Found: 10 to 50%

Lookup: // same read-out, input: `C[C@@]1(O)CC[C@@]2(C)C(=CC[C@@H]3[C@@H]2CC[C@]2(C)C(c4cncc(F)c4)=CC[C@@H]32)C1`
Found: ≥ 50%

Lookup: Moving on to `CC(=O)N[C@@H]1CC[C@@]2(C)C(=CC[C@H]3C4=CC=C(c5cccnc5)[C@@]4(C)CC[C@@H]32)C1`
Found: ≥ 50%

Lookup: Quick one: `CN1C(=O)CC[C@@]2(C)C1=CC[C@@H]1[C@@H]2CC[C@]2(C)C(n3cncc3C#N)=CC[C@@H]12`
Found: < 10%

Lookup: Then this molecule: C[C@]12CC[C@H](NC(=O)C(F)(F)F)CC1CC[C@@H]1[C@@H]2CC[C@]2(C)C(c3cccnc3)=CC[C@@H]12 (stereo partly drawn)
Found: 10 to 50%

Lookup: Please do the same for C[C@]12CCC(=O)C=C1C(c1ccccc1)C[C@@H]1[C@@H]2CC[C@]2(C)C(c3cccnc3)=CC[C@@H]12 (stereo partly drawn) as well.
Found: < 10%

Lookup: Another: `C[C@]12C=C/C(=N\O)C=C1C1(CC1)C[C@@H]1[C@@H]2CC[C@]2(C)C(c3cccnc3)=CC[C@@H]12`
Found: 10 to 50%

Lookup: Can you check `COc1cncc(C2=CC[C@H]3[C@@H]4CC[C@H]5C[C@@H](OC)CC[C@]5(C)[C@H]4CC[C@]23C)c1` next?
Found: 10 to 50%

Lookup: Then what about the molecule COC(=O)N[C@H]1CC[C@@]2(C)C(CC[C@H]3C4CC=C(c5cccnc5)[C@@]4(C)CC[C@@H]32)C1 (single isomer, unassigned) ?
Found: ≥ 50%

Lookup: Then `C[C@]12CC[C@H]3[C@@H](CCC4=CC(=O)NCC[C@@]43C)C1=CC=C2c1cncc(C(F)F)c1` ?
Found: ≥ 50%

Lookup: Proceed to C[C@]12CC[C@H]3[C@@H](CC(=O)C45CC4CC[C@]35C)C1=CC=C2c1cccnc1 (stereo partly drawn)
Found: ≥ 50%

Lookup: Item: CC1C(=O)CC[C@@]2(C)C1CC[C@@H]1[C@@H]2CC[C@]2(C)C(c3cccnc3)=CC[C@@H]12 (stereo partly drawn)
Found: 10 to 50%
